Biological target: MAGE-A11:PCF11 interaction (GST-MAGE-A11 and FAM-PCF11_4) (Homo sapiens, UniProt P43364)
Construct: GST-MAGE-A11 MHD (human MAGE-A11 MHD amino acid 218-429); made in house; host or cells: E. coli BL21(DE3)
Sequence (P43364 218-429): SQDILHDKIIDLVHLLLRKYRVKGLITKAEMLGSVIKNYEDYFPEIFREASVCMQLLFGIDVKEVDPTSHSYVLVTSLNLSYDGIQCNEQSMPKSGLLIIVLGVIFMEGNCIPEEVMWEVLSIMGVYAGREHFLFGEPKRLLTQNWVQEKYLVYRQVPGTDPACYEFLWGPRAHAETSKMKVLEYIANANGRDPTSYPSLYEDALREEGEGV
Assay: TR-FRET primary / single point screen at 15 µM
Format: binding
Details: single point TR-FRET screening of quinoline compounds against MAGE-A11:PCF11; 15 µM
Entries and their percent inhibition (TR-FRET)
observable: percent inhibition (TR-FRET)

CCCN(CCCNc1ccnc2cc(Cl)ccc12)Cc1cccn1C
22.7145
COc1cc(Cc2ccc3c(NCCCNCc4ccco4)ccnc3c2)cc(OC)c1
23.7879
CCCN(CCCNc1ccnc2cc(C(F)(F)F)ccc12)Cc1ccc(N(C)C)cc1
23.7127
Clc1cccc(Cl)c1Cc1ccc2c(NCCCNCc3ccco3)ccnc2c1
32.3998
CCCN(CCCNc1ccnc2cc(Cl)ccc12)Cc1ccc[nH]1
10.3448
CCCN(CCCNc1ccnc2cc(Cl)ccc12)Cc1ccccc1
19.1371
Oc1c(F)cc(F)cc1CN(CCCNc1ccnc2cc(Cl)ccc12)Cc1ccccc1
27.6387
Clc1ccc2c(NCCCNCc3cncc(Br)c3)ccnc2c1
7.014
Clc1ccc2c(NCCCN(Cc3ccccc3)Cc3ccc[nH]3)ccnc2c1
20.4621
CCCN(CCCNc1c2ccc(Cl)cc2nc2ccc(OC)cc12)Cc1cncc(Br)c1
-89.0775
Cc1ccc(CN(CCCNc2ccnc3cc(Cl)ccc23)Cc2ccccc2)s1
4.629
CCCN(CCCNc1ccnc2cc(Cl)ccc12)Cc1ccc([N+](=O)[O-])o1
9.575
COC(=O)CCCCCN(CCCNc1ccnc2cc(Cl)ccc12)Cc1ccccc1
17.1364
CC(C)(C)CCNCCCNc1ccnc2cc(Cl)ccc12
9.225
CCOC(=O)c1cnc2ccc(OCC)cc2c1NCCCN1CCOCC1
5.532
Clc1ccc2c(NCCCN(Cc3ccccc3)Cc3ccccn3)ccnc2c1
-3.851
CCCN(CCCNc1ccnc2cc(C(F)(F)F)ccc12)Cc1csc2ccccc12
19.4469
O=[N+]([O-])c1ccc(CN(CCCNc2ccnc3cc(Cl)ccc23)Cc2ccccc2)cc1
20.1971
CCCN(CCCNc1ccnc2cc(C(F)(F)F)ccc12)Cc1cc(F)cc(F)c1O
14.997
CCCN(CCCNc1ccnc2cc(Cl)ccc12)Cc1cccnc1
7.809
COc1cccc(CN(CCCNc2ccnc3cc(Cl)ccc23)Cc2ccccc2)c1O
13.1749
CCCN(CCCNc1c2ccc(Cl)cc2nc2ccc(OC)cc12)Cc1ccc([N+](=O)[O-])cc1
-9.039
CCCN(CCCNc1c2ccc(Cl)cc2nc2ccc(OC)cc12)Cc1ccc(Cl)cc1Cl
9.598
Clc1ccc(CN(CCCNc2ccnc3cc(Cl)ccc23)Cc2ccccc2)c(Cl)c1
25.4969
c1coc(CNCCCNc2ccnc3cc(-c4ccc5c(c4)OCO5)ccc23)c1
30.7894

Source of measurements: paper PMC7529893
